assay: Displacement of [3H]NTI from delta opioid receptor in guinea pig forebrain homogenate by scintillation counting; format: tissue-based, Cavia porcellus, Brain
pKi: −log10 of the molar value.
Assign YES to entries whose pKi meets or exceeds 7; assign NO to the rest.

Req: Check this molecule for pKi at or above 7: CN1CC[C@]23c4c5ccc(O)c4O[C@H]2C(=O)CC[C@@]3(O)[C@H]1C5
Resp: YES

Req: Item CN1CCC23CC(=O)CCC2(Cc2ccc(O)cc23)C1 (stereo not drawn) with pKi of 7 or above?
Resp: NO

Req: Evaluate O=C1CC[C@@]2(O)[C@H]3Cc4ccc(O)cc4[C@@]2(CCN3CC2CC2)C1 : pKi at minimum 7?
Resp: YES

Req: For this molecule, is measured pKi 7 or higher? CCC12CCN(CC3(O)CC3)[C@H](Cc3ccc(O)cc31)C2(C)C
Resp: YES

Req: pKi >= 7 for CC(C)=CCN1CC[C@@]2(C)c3cc(O)ccc3C[C@@H]1[C@@H]2C ?
Resp: YES

Req: # bool: pKi of O=C1CCC23Cc4ccc(O)cc4C2(CCN(CC2(O)CC2)C3)C1 (stereo not drawn) >= 7
Resp: NO

Req: Kindly determine if pKi recorded for O=C1CCC23Cc4ccc(O)cc4C2(CCN(CC2CC2)C3)C1 (stereo not drawn) is above or exactly 7.
Resp: NO

Req: Does pKi meet or surpass 7 for Oc1ccc2c3c1OC1C4(O)CC[C@@]5(OC4)[C@@H](C2)N(CC2CC2)CC[C@]315 (stereo partly drawn) ?
Resp: YES
